system: A431 human cervical carcinoma cells; test: MTT cytotoxicity test, 72 h; assay type: cell-based
measured-attribute: pIC50
Notebook: values listed as pIC50 are -log10 of the concentration (mol/L).

Incoming: For the substance cis,trans,cis-[Pt(OXA)(OH)2(DACHEX)] [Complex 1] , give its measured pIC50 value.
Outgoing: 6.31

----------
system: LoVo human colon carcinoma cells; assay: MTT cytotoxicity test, 72 h; type: cell-based
measured-attribute: pIC50
In textbook form, pIC50 equals minus log to base ten of the concentration in mol/L.

Incoming: Using LoVo human colon carcinoma cells as the test system, report measured pIC50 of cis,trans,cis-[Pt(OXA)(OH)2(DACHEX)] [Complex 1] .
Outgoing: 6.08

----------
system: PSN-1 human pancreatic carcinoma cells; experiment: MTT cytotoxicity test, 72 h; assay type: cell-based; conditions: PSN-1, MTT
measured-attribute: IC50 (µM)
Respond with the bare value in µM.

{"columns": ["compound", "observed-value"],
 "data": [
  ["CC(=O)[O][Pt]1([O]C(C)=O)[O]C(=O)C(=O)[O]1.NC1CC=CCC1N [Complex 2, cis,trans,cis-[Pt(OXA)(AcO)2(DACHEX)]]", 2.85],
  ["NC1CC=CCC1N.O=C1[O][Pt]([Cl])([Cl])[O]C1=O (racemic) [Complex 4, cis,trans,cis-[Pt(OXA)Cl2(DACHEX)]]", 3.08]
]}

Now for another entry.
Incoming: Report value only: IC50, PSN-1 human pancreatic carcinoma cells, [NH2][Pt]([NH2])([Cl])[Cl] [CDDP, cisplatin, reference compound]
Outgoing: 16.6
